Molecular target: UniProtKB Q9H2X9
Sequence (Q9H2X9 whole entry, species assumed): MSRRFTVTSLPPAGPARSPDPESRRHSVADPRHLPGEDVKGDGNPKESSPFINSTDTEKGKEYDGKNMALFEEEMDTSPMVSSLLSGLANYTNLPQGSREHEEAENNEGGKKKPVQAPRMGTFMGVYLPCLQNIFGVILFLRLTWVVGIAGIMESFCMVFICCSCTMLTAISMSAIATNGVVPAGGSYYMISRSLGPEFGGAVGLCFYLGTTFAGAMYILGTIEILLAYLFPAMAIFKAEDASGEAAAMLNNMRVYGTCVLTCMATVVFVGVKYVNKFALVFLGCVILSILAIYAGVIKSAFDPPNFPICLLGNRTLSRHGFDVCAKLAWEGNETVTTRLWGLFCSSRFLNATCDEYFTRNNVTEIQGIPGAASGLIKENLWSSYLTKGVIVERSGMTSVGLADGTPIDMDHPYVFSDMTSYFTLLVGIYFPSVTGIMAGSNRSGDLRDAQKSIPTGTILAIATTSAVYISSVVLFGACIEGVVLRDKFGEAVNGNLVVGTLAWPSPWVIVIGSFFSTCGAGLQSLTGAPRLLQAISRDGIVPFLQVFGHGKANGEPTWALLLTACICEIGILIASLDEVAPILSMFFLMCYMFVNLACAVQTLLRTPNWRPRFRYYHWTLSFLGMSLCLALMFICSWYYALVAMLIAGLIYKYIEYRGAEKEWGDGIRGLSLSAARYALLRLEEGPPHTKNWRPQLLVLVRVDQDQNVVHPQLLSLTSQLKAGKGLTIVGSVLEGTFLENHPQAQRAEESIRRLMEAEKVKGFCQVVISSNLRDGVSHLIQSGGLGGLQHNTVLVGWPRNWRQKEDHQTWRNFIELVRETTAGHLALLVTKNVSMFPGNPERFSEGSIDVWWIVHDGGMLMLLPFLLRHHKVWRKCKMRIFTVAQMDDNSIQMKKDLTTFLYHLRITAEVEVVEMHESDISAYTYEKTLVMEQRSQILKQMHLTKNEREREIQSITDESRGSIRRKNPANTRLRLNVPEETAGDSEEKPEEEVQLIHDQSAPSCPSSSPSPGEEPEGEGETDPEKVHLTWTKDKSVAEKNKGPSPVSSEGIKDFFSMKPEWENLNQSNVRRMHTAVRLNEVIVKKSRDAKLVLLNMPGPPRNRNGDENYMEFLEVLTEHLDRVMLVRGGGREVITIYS
Assay: Thallium influx functional assay (FluxOR Potassium ion channel assay) in HEK293T cells transfected with KCC2
Conditions: KCC2 inhibition in vitro
recorded metric: pIC50
Field pIC50 (float): negative decimal logarithm of the concentration in molar.

[in] What does the record list as pIC50 for NS(=O)(=O)c1cc(C(=O)O)c(NCc2ccco2)cc1Cl [Furosemide, furosemide] ?
[out] 3.34

These entries and their values trace back to patent US20250275987A1.
